FYI, the data here is from PubChem BioAssay AID2060906.

- Tested on: 485176-168-R4-J1-PDC complex spheroid growth
- assay.details: Anticancer human tumor 485176-168-R4-J1-PDC patient-derived pancreatic adenocarcinoma cell line growth inhibition [RAS]
- measurement.conditions: second compound 0.003 µM; first compound 1 µM; stronger effect = lower value
reported.metric: viability, T/C (%)
Respond numerically; units are % and should not be typed.

Use the examples below as a reference point.
C=CC(=O)Nc1cc(Nc2nccc(-c3cn(C)c4ccccc34)n2)c(OC)cc1N(C)CCN(C)C + CCn1c(-c2cc(N3CCN(C)CC3)cnc2C(C)OC)c2c3cc(ccc31)-c1csc(n1)CC(NC(=O)C1CC1C)C(=O)N1CCCC(N1)C(=O)OCC(C)(C)C2 ... 60.5
C[C@@H](NC(=O)c1ncnc(N)c1Cl)c1ncc(C(=O)Nc2cc(C(F)(F)F)c(Cl)cn2)s1 + CCn1c(-c2cccnc2C(C)OC)c2c3cc(ccc31)N1CCOC(CC(NC(=O)C(C(C)C)N(C)C(=O)C3(F)CCN(C(=O)C#CC(C)(C)N(C)C)CC3)C(=O)N3CCCC(N3)C(=O)OCC(C)(C)C2)C1 ... 70.6
CC(Nc1ccc2c(c1)OCCn1cc(N3C(=O)OCC3C(F)F)nc1-2)C(N)=O (configuration not stated) + CCn1c(-c2cccnc2C(C)OC)c2c3cc(ccc31)N1CCOC(CC(NC(=O)C(C(C)C)N(C)C(=O)C3(F)CCN(C(=O)C#CC(C)(C)N(C)C)CC3)C(=O)N3CCCC(N3)C(=O)OCC(C)(C)C2)C1 ... 74.5
Cc1nc(N2CCC3(CC2)COC(C)C3N)c(CO)nc1Sc1ccnc(N)c1Cl (configuration not stated) + CCn1c(-c2cc(N3CCN(C)CC3)cnc2C(C)OC)c2c3cc(ccc31)-c1csc(n1)CC(NC(=O)C1CC1C)C(=O)N1CCCC(N1)C(=O)OCC(C)(C)C2 ... 83.6
C=CC(=O)Nc1cc(Nc2nccc(-c3cn(C)c4ccccc34)n2)c(OC)cc1N(C)CCN(C)C + CCn1c(-c2cccnc2C(C)OC)c2c3cc(ccc31)N1CCOC(CC(NC(=O)C(C(C)C)N(C)C(=O)C3(F)CCN(C(=O)C#CC(C)(C)N(C)C)CC3)C(=O)N3CCCC(N3)C(=O)OCC(C)(C)C2)C1 ... 61.4
CC(=O)OC12COC1CC(O)C1(C)C(=O)C(O)C3=C(C)C(OC(=O)C(O)C(NC(=O)OC(C)(C)C)c4ccccc4)CC(O)(C(OC(=O)c4ccccc4)C21)C3(C)C (configuration not stated) + CCn1c(-c2cc(N3CCN(C)CC3)cnc2C(C)OC)c2c3cc(ccc31)-c1csc(n1)CC(NC(=O)C1CC1C)C(=O)N1CCCC(N1)C(=O)OCC(C)(C)C2 ... 15.5

Now for a further compound.
Query: Fill in: viability, T/C of CC1(O)CCCC1n1c(=O)c(C(F)F)cc2cnc(NC3CCN(S(C)(=O)=O)CC3)nc21 (configuration not stated) + CCn1c(-c2cccnc2C(C)OC)c2c3cc(ccc31)N1CCOC(CC(NC(=O)C(C(C)C)N(C)C(=O)C3(F)CCN(C(=O)C#CC(C)(C)N(C)C)CC3)C(=O)N3CCCC(N3)C(=O)OCC(C)(C)C2)C1 is ___
Reply: 72.8

###

- Test system: 485176-168-R4-J1-PDC complex spheroid growth
- assay.details: Anticancer human tumor 485176-168-R4-J1-PDC cell line growth inhibition [RAS]; active = viability on the fitted dose curve at most 10% of control; inactive = the rest;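 further: spheroids exposed to compounds for seven days before readout; luminescence viability expressed relative to DMSO vehicle wells set as 100%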
- measurement.conditions: second compound 3.16 µM; first compound 3.16 µM
Return exactly one item of T = active, F = inactive

# count of solved cases: 2
CC(C)NCC(C(=O)N1CCN(c2ncnc3c2C(C)CC3O)CC1)c1ccc(Cl)cc1 (stereo not drawn) + C#Cc1c(F)ccc2cc(O)cc(-c3ncc4c(N5CC6CCC(C5)N6)nc(OCC56CCCN5CC(F)C6)nc4c3F)c12 ... F
Cc1nc(N2CCC3(CC2)COC(C)C3N)c(CO)nc1Sc1ccnc(N)c1Cl (stereo not drawn) + C#Cc1c(F)ccc2cc(O)cc(-c3ncc4c(N5CC6CCC(C5)N6)nc(OCC56CCCN5CC(F)C6)nc4c3F)c12 ... F

Continue with the molecule presented below.
Query: Which outcome did this test record for the molecule CCC(CC)c1cc(NC2CCC(N)C2)n2nccc2n1 (stereo not drawn) + C#Cc1c(F)ccc2cc(O)cc(-c3ncc4c(N5CC6CCC(C5)N6)nc(OCC56CCCN5CC(F)C6)nc4c3F)c12 ?
Reply: T

###

- Test system: 485176-168-R4-J1-PDC complex spheroid growth
- assay.details: Anticancer human tumor 485176-168-R4-J1-PDC cell line growth inhibition [RAS];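 further: spheroids exposed to compounds for seven days before readout; luminescence viability expressed relative to DMSO vehicle wells set as 100%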
- measurement.conditions: second compound 0.0316 µM; first compound 0.00316 µM; stronger effect = lower value
reported.metric: viability, T/C (%)
Respond numerically; units are % and should not be typed.

Use the examples below as a reference point.
CC(C)n1nc(-c2ccc3oc(N)nc3c2)c2c(N)ncnc21 + C=CC(=O)N1CCN(c2nc(OCC3CCCN3C)nc3c(F)c(-c4nc(N)cc(C)c4C(F)(F)F)c(Cl)cc23)C(C)C1 ... 81.2
CCN1CCN(Cc2ccc(Nc3ncc(F)c(-c4cc(F)c5nc(C)n(C(C)C)c5c4)n3)nc2)CC1 + C#Cc1c(F)ccc2cc(O)cc(-c3ncc4c(N5CC6CCC(C5)N6)nc(OCC56CCCN5CC(F)C6)nc4c3F)c12 ... 91.1
C=CC(=O)N1CCN(c2nc(OCC3CCCN3C)nc3c(F)c(-c4nc(N)cc(C)c4C(F)(F)F)c(Cl)cc23)C(C)C1 (stereo unspecified) + C#Cc1c(F)ccc2cc(O)cc(-c3ncc4c(N5CC6CCC(C5)N6)nc(OCC56CCCN5CC(F)C6)nc4c3F)c12 ... 103
CCN1CCN(Cc2ccc(Nc3ncc(F)c(-c4cc(F)c5nc(C)n(C(C)C)c5c4)n3)nc2)CC1 + C=CC(=O)N1CCN(c2nc(OCC3CCCN3C)nc3c(F)c(-c4nc(N)cc(C)c4C(F)(F)F)c(Cl)cc23)C(C)C1 ... 101
O=C(c1ccc(F)c(F)c1Nc1ccc(I)cc1F)N1CC(O)([C@@H]2CCCCN2)C1 + C=CC(=O)N1CCN(c2nc(OCC3CCCN3C)nc3c(F)c(-c4nc(N)cc(C)c4C(F)(F)F)c(Cl)cc23)C(C)C1 ... 96.1

Now for a further molecule.
Query: Fill in: viability, T/C of O=C(c1ccc(F)c(F)c1Nc1ccc(I)cc1F)N1CC(O)([C@@H]2CCCCN2)C1 + C#Cc1c(F)ccc2cc(O)cc(-c3ncc4c(N5CC6CCC(C5)N6)nc(OCC56CCCN5CC(F)C6)nc4c3F)c12 is ___
Reply: 80.3

###

- System: 485176-168-R4-J1-PDC complex spheroid growth
- assay.details: Anticancer human tumor 485176-168-R4-J1-PDC cell line growth inhibition [RAS];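 further: spheroids exposed to compounds for seven days before readout; luminescence viability expressed relative to DMSO vehicle wells set as 100%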
- measurement.conditions: second compound 0.03 µM; first compound 1 µM; stronger effect = lower value
Listed below: viability, T/C values for each entry.
Respond numerically; units are % and should not be typed.

CC(Nc1ccc2c(c1)OCCn1cc(N3C(=O)OCC3C(F)F)nc1-2)C(N)=O (centres undefined) + CCn1c(-c2cc(N3CCN(C)CC3)cnc2C(C)OC)c2c3cc(ccc31)-c1csc(n1)CC(NC(=O)C1CC1C)C(=O)N1CCCC(N1)C(=O)OCC(C)(C)C2 ... 60.5
CC(C)NCC(C(=O)N1CCN(c2ncnc3c2C(C)CC3O)CC1)c1ccc(Cl)cc1 (centres undefined) + CCn1c(-c2cccnc2C(C)OC)c2c3cc(ccc31)N1CCOC(CC(NC(=O)C(C(C)C)N(C)C(=O)C3(F)CCN(C(=O)C#CC(C)(C)N(C)C)CC3)C(=O)N3CCCC(N3)C(=O)OCC(C)(C)C2)C1 ... 53.7
C=CC(=O)Nc1cc(Nc2nccc(-c3cn(C)c4ccccc34)n2)c(OC)cc1N(C)CCN(C)C + CCn1c(-c2cccnc2C(C)OC)c2c3cc(ccc31)N1CCOC(CC(NC(=O)C(C(C)C)N(C)C(=O)C3(F)CCN(C(=O)C#CC(C)(C)N(C)C)CC3)C(=O)N3CCCC(N3)C(=O)OCC(C)(C)C2)C1 ... 58.7

Now for a further compound.
Query: What viability, T/C appears in the records for this compound with 485176-168-R4-J1-PDC complex spheroid growth? CCC(CC)c1cc(NC2CCC(N)C2)n2nccc2n1 (centres undefined) + CCn1c(-c2cccnc2C(C)OC)c2c3cc(ccc31)N1CCOC(CC(NC(=O)C(C(C)C)N(C)C(=O)C3(F)CCN(C(=O)C#CC(C)(C)N(C)C)CC3)C(=O)N3CCCC(N3)C(=O)OCC(C)(C)C2)C1
Reply: 53.7

###

- System: 485176-168-R4-J1-PDC complex spheroid growth
- assay.details: Anticancer human tumor 485176-168-R4-J1-PDC cell line growth inhibition [RAS]; active = viability on the fitted dose curve at most 10% of control; inactive = the rest;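 further: spheroids exposed to compounds for seven days before readout; luminescence viability expressed relative to DMSO vehicle wells set as 100%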
- measurement.conditions: second compound 0.01 µM; first compound 0.1 µM
Return exactly one item of active, inactive

# count of solved cases: 5
Cc1nc(N2CCC3(CC2)COC(C)C3N)c(CO)nc1Sc1ccnc(N)c1Cl (stereo not given) + C=CC(=O)N1CCN(c2nc(OCC3CCCN3C)nc3c(F)c(-c4nc(N)cc(C)c4C(F)(F)F)c(Cl)cc23)C(C)C1 ... inactive
CC(C)NCC(C(=O)N1CCN(c2ncnc3c2C(C)CC3O)CC1)c1ccc(Cl)cc1 (stereo not given) + C=CC(=O)N1CCN(c2nc(OCC3CCCN3C)nc3c(F)c(-c4nc(N)cc(C)c4C(F)(F)F)c(Cl)cc23)C(C)C1 ... inactive
C[C@@H](NC(=O)c1ncnc(N)c1Cl)c1ncc(C(=O)Nc2cc(C(F)(F)F)c(Cl)cn2)s1 + C=CC(=O)N1CCN(c2nc(OCC3CCCN3C)nc3c(F)c(-c4nc(N)cc(C)c4C(F)(F)F)c(Cl)cc23)C(C)C1 ... inactive
CC(=O)OC12COC1CC(O)C1(C)C(=O)C(O)C3=C(C)C(OC(=O)C(O)C(NC(=O)OC(C)(C)C)c4ccccc4)CC(O)(C(OC(=O)c4ccccc4)C21)C3(C)C (stereo not given) + C=CC(=O)N1CCN(c2nc(OCC3CCCN3C)nc3c(F)c(-c4nc(N)cc(C)c4C(F)(F)F)c(Cl)cc23)C(C)C1 ... inactive
Nc1ccn(C2OC(CO)C(O)C2(F)F)c(=O)n1 (stereo not given) + C=CC(=O)N1CCN(c2nc(OCC3CCCN3C)nc3c(F)c(-c4nc(N)cc(C)c4C(F)(F)F)c(Cl)cc23)C(C)C1 ... active

Query: Which outcome did this test record for the molecule CCN1CCN(Cc2ccc(Nc3ncc(F)c(-c4cc(F)c5nc(C)n(C(C)C)c5c4)n3)nc2)CC1 + C=CC(=O)N1CCN(c2nc(OCC3CCCN3C)nc3c(F)c(-c4nc(N)cc(C)c4C(F)(F)F)c(Cl)cc23)C(C)C1 ?
Reply: inactive

Query: Which outcome did this test record for the molecule C=CC(=O)Nc1cc(Nc2nccc(-c3cn(C)c4ccccc34)n2)c(OC)cc1N(C)CCN(C)C + C=CC(=O)N1CCN(c2nc(OCC3CCCN3C)nc3c(F)c(-c4nc(N)cc(C)c4C(F)(F)F)c(Cl)cc23)C(C)C1 ?
Reply: inactive

Query: Which outcome did this test record for the molecule CC(C)n1nc(-c2ccc3oc(N)nc3c2)c2c(N)ncnc21 + C=CC(=O)N1CCN(c2nc(OCC3CCCN3C)nc3c(F)c(-c4nc(N)cc(C)c4C(F)(F)F)c(Cl)cc23)C(C)C1 ?
Reply: inactive

Query: Which outcome did this test record for the molecule CC(Nc1ccc2c(c1)OCCn1cc(N3C(=O)OCC3C(F)F)nc1-2)C(N)=O (stereo not given) + C=CC(=O)N1CCN(c2nc(OCC3CCCN3C)nc3c(F)c(-c4nc(N)cc(C)c4C(F)(F)F)c(Cl)cc23)C(C)C1 ?
Reply: inactive

Query: Which outcome did this test record for the molecule NC1c2ccccc2OC12CCN(c1cnc3c(N4CCCc5ncccc54)n[nH]c3n1)CC2 (stereo not given) + C=CC(=O)N1CCN(c2nc(OCC3CCCN3C)nc3c(F)c(-c4nc(N)cc(C)c4C(F)(F)F)c(Cl)cc23)C(C)C1 ?
Reply: inactive
